Tested on: L1210
Run description: Cytotoxicity in the multiple tumor disk diffusion soft agar assay at the dose of 15 ug/disk against leukemia L1210
Type: functional, Mus musculus
Under this convention, Yes denotes Cytotoxicity strictly below 400 U and No denotes Cytotoxicity at or above 400 U.

Is Cytotoxicity of Cc1c[nH]c(NCCCN(C)C)c2c3ccc4c(O)cccc4c3nc1-2 strictly below 400 U?
No

Is Cytotoxicity of CCN(CC)CCCNc1ncc(C)c2[nH]c3ccc4cc(O)ccc4c3c12 strictly below 400 U?
No

Is Cytotoxicity of Cc1c[nH]c(NCCCN(C)C)c2c3ccc4ccccc4c3nc1-2 strictly below 400 U?
No

Is Cytotoxicity of CCN(CC)CCCNc1ncc(C)c2c1c1ccc3c(OC)cccc3c1n2C strictly below 400 U?
No

Is Cytotoxicity of CCN(CC)CCCNc1ncc(C)c2c1c1c3ccc(O)cc3ccc1n2C strictly below 400 U?
No

Is Cytotoxicity of Cc1cnc(NCCCN(C)C)c2c3ccc4ccccc4c3n(C)c12 strictly below 400 U?
No

Is Cytotoxicity of Cc1cnc(NCCCN(C)C)c2c1[nH]c1ccc3cc(O)ccc3c12 [INTOPLICINE] strictly below 400 U?
Yes

Is Cytotoxicity of Cc1cnc(NCCCN(C)C)c2c3c4ccc(O)cc4ccc3n(C)c12 strictly below 400 U?
Yes

Is Cytotoxicity of CCN(CC)CCCNc1[nH]cc(C)c2nc3c(ccc4cc(OC)ccc43)c1-2 strictly below 400 U?
Yes

Is Cytotoxicity of CCN(CC)CCCNc1[nH]cc(C)c2nc3c(ccc4ccccc43)c1-2 strictly below 400 U?
No

Is Cytotoxicity of COc1cccc2c1ccc1c2[nH]c2c(C)cnc(NCCCN(C)C)c21 strictly below 400 U?
Yes
